# MEASURED TARGET: KPC-2 β-lactamase (Class A carbapenemase) (Klebsiella pneumoniae)
# Sequence (Q9F663 25-293, looked up): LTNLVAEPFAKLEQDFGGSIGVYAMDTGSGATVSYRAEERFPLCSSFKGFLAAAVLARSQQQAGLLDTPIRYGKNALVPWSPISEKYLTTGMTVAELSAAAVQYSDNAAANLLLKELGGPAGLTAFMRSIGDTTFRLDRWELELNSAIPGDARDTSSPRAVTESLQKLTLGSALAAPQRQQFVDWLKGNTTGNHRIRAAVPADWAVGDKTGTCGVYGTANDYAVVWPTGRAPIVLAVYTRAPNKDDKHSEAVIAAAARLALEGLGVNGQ
# MEASUREMENT PROTOCOL: β-Lactamase inhibition, KPC-2
# CONDITION DESCRIPTION: imipenem substrate, 300 nm; 15 min preincubation at 37° C., PBS pH 7.4
QUANTITY KIND: IC50

Known IC50 results, listed for orientation:
STRUCTURE STRING | IC50
NCCN1CCC(CC(=O)N[C@H]2Cc3cccc(C(=O)O)c3OB2O)CC1 | < 100 nM
CN(C)CCN1CCN(CC(=O)N[C@H]2Cc3cccc(C(=O)O)c3OB2O)CC1 | < 100 nM
CN(C)c1ccc(NC(=O)N2CC(C(=O)N[C@H]3Cc4cccc(C(=O)O)c4OB3O)C2)cc1 | < 100 nM
CNC1CCN(CC(=O)N[C@H]2Cc3cccc(C(=O)O)c3OB2O)CC1 | 100 to 1000 nM
NCCN1CCC(NCC(=O)N[C@H]2Cc3cccc(C(=O)O)c3OB2O)CC1 | < 100 nM

# input compound: N[C@@H]1CCCN(CC(=O)N[C@H]2Cc3cccc(C(=O)O)c3OB2O)C1 ; wanted: its IC50 100 to 1000 nM

Now the compound NCCNC1CCN(CC(=O)N[C@H]2Cc3cccc(C(=O)O)c3OB2O)CC1 < 100 nM

Now consider N=C(N)NCCN1CCC(CCC(=O)N[C@H]2Cc3cccc(C(=O)O)c3OB2O)CC1 . 100 to 1000 nM
